These entries and their values trace back to patent US20150105252A1.

# System: velvetleaf
# MEASUREMENT_NOTES: Test A preemergence
# Type: in vivo, Abutilon theophrasti
# DETAILS: preemergence, 125 g ai/ha, visual injury approx. 10 days after treatment
TEST_READOUT: Velvetleaf plant response rating (0 to 100 scale)

COMPOUND	TEST_RESULT
CCCNC(=O)c1cc(CC)n(Cc2cc(C(F)(F)C(F)(F)F)nn2C)n1 [Compound 229]	40
CCCc1cc(C(=O)NC(C)C)nn1Cc1ccnc(C(F)(F)F)c1 [Compound 186]	100
CCc1cc(C(=O)NCC(F)(F)F)nn1Cc1cc(C(F)(F)C(F)(F)F)nn1C [Compound 227]	30

----------
# Tested on: goosegrass
# MEASUREMENT_NOTES: Test C postemergence
# Assay type: in vivo, Eleusine indica
# DETAILS: postemergence, 250 g ai/ha; scale 0 to 100 (0 no effect, 100 complete control)
TEST_READOUT: Plant response rating, Goosegrass

RECORD_SMILES	TEST_READOUT	TEST_RESULT
CCc1cc(C(=O)NOC(C)C)nn1Cc1cccc(OC(F)(F)F)c1	Plant response rating, Goosegrass	15
CCONC(=O)c1cc(CC)n(Cc2cccc(OC(F)(F)F)c2)n1	Plant response rating, Goosegrass	5
Cc1cc(C(=O)NCC(F)(F)F)nn1Cc1ccnc(C(F)(F)F)c1	Plant response rating, Goosegrass	10
CCCNC(=O)c1cc(CC)n(Cc2cccc(OC(F)(F)F)c2)n1	Plant response rating, Goosegrass	10
CCc1cc(C(=O)NCC(F)(F)F)nn1Cc1cccc(OC(F)(F)F)c1	Plant response rating, Goosegrass	15

----------
# Test system: morningglory
# MEASUREMENT_NOTES: Test C preemergence
# Type: in vivo, Ipomoea coccinea
# DETAILS: preemergence, 31 g ai/ha; visual rating, scale 0 to 100 (0 no effect, 100 complete control), 13 to 15 days
TEST_READOUT: Morningglory plant response rating

COMPOUND	TEST_READOUT	TEST_RESULT
CCCc1cc(C(=O)NC2CC2)nn1Cc1ccnc(OC(F)F)c1 [Compound 205]	Morningglory plant response rating	100
O=C(NC1CC1)c1cc(CCCl)n(Cc2ccnc(C(F)(F)F)c2)n1 [Compound 144]	Morningglory plant response rating	60
CCCc1cc(C(=O)NOC(C)C)nn1Cc1cc(C(F)(F)F)nn1C [Compound 203]	Morningglory plant response rating	30
CCCc1cc(C(=O)NC(C)C)nn1Cc1cc(C(F)(F)F)nn1C [Compound 201]	Morningglory plant response rating	85
CCCNC(=O)c1cc(OCC)n(Cc2ccnc(OC(F)F)c2)n1 [Compound 136]	Morningglory plant response rating	100
CCCNC(=O)c1cc(OCC)n(Cc2ccnc(C(F)(F)F)c2)n1 [Compound 187]	Morningglory plant response rating	85
CCCc1cc(C(=O)NC2CC2)nn1Cc1cc(C(F)(F)F)nn1C [Compound 202]	Morningglory plant response rating	90

----------
# Tested on: pigweed
# MEASUREMENT_NOTES: Test A preemergence
# Assay type: in vivo, Amaranthus retroflexus
# DETAILS: preemergence, 125 g ai/ha; visual injury, 0 to 100 scale, approx. 10 days
Overview of reported Pigweed plant response rating across a group of molecules:

MOLECULE	MEASURED_TARGET	Pigweed plant response rating
CCCc1cc(-c2ccc(C(F)(F)F)cc2)nn1Cc1ccnc(C(F)(F)F)c1 [Compound 113]	pigweed	100
CCc1cc(C(=O)NCC(F)(F)F)nn1Cc1nc(C(F)(F)F)nn1C [Compound 107]	pigweed	100
CCONC(=O)c1cc(CC)n(Cc2ccnc(C(F)(F)F)c2)n1 [Compound 77]	pigweed	100
CCONC(=O)c1cc(CC)n(Cc2ccnc(OC(F)F)c2)n1 [Compound 131]	pigweed	100
CCc1cc(C(=O)NOC(C)C)nn1Cc1cccc(OC(F)(F)F)c1 [Compound 70]	pigweed	100
CCCNC(=O)c1cc(CC)n(Cc2cc(C(F)(F)F)nn2CC)n1 [Compound 117]	pigweed	90
CCOc1cc(C(=O)NCC(F)(F)F)nn1Cc1cc(C(F)(F)F)nn1C [Compound 140]	pigweed	100
CCCc1cc(C(=O)NCC(F)(F)F)nn1Cc1ccnc(OC(F)F)c1 [Compound 127]	pigweed	90
CCc1cc(C(=O)NOC(C)C)nn1Cc1ccnc(OC(F)F)c1 [Compound 126]	pigweed	100
CCONC(=O)c1cc(CC)n(Cc2cccc(OC(F)(F)F)c2)n1 [Compound 72]	pigweed	100
CCc1cc(C(=O)NCC(F)(F)C(F)(F)F)nn1Cc1ccnc(C(F)(F)F)c1 [Compound 102]	pigweed	90
